# experimental system: UniProt Q9UBN7
# Sequence (Q9UBN7 whole entry): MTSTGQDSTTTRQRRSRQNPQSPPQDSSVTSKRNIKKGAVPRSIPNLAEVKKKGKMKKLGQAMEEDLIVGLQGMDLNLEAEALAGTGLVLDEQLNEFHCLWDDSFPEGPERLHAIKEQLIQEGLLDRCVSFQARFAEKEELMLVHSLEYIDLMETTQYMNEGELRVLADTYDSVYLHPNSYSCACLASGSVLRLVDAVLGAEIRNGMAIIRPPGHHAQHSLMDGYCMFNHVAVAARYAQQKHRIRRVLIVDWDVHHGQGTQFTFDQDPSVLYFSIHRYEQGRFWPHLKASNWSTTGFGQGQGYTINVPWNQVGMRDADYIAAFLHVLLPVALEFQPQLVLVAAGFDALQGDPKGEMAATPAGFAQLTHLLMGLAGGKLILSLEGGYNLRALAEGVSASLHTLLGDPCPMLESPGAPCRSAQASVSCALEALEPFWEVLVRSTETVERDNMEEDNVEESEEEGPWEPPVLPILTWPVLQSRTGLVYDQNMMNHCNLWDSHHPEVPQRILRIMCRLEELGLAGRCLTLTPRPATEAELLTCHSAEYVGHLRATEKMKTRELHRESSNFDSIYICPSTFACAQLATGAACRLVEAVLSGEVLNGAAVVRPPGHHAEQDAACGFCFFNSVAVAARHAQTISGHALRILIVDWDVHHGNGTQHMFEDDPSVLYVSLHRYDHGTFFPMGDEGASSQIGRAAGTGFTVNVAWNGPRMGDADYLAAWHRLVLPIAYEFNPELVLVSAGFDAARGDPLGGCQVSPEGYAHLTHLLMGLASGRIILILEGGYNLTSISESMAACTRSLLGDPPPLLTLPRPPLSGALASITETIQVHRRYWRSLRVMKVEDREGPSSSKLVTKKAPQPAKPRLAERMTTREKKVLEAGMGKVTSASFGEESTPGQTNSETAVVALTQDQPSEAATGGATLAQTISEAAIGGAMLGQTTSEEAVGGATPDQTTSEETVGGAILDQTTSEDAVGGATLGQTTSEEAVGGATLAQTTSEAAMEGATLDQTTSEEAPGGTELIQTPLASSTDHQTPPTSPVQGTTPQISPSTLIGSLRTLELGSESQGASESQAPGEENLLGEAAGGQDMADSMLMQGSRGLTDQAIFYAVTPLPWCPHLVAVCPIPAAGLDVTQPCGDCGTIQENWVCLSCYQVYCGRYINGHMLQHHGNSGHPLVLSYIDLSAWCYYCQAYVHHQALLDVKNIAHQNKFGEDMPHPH
# assay remarks: Inhibition of human recombinant HDAC6 using [Ac-Leu-Gly-Lys(Ac)-AMC substrate incubated for 15 to 30 mins
# settings: read-out: Ki
For each entry below, report its pKi value.
Give bare numbers, as −log10 of the molar value.

{"columns": ["structure notation", "experimental system", "pKi"],
 "data": [
  ["CC(C)[C@H]1NC(=O)C[C@@H](CCCCCC(=O)O)NC(=O)[C@@H](Cc2c[nH]c3ccccc23)NC(=O)[C@@H](C)NC1=O", "UniProt Q9UBN7", 5.72]
]}

Provide pKi for all items below, preserving their order.
1. CC(C)[C@H]1NC(=O)C[C@@H](/C=C/CCCC(=O)O)NC(=O)[C@@H](Cc2ccc(O)cc2)NC(=O)[C@@H](C)NC1=O
2. CC(C)[C@H]1NC(=O)C[C@@H](C/C=C\CCC(=O)O)NC(=O)[C@@H](Cc2ccc(O)cc2)NC(=O)[C@@H](C)NC1=O
3. CC(C)[C@H]1NC(=O)C[C@@H](CCCCCC(=O)O)NC(=O)[C@@H](Cc2ccc(O)cc2)NC(=O)[C@@H](C)NC1=O
4. CC(C)[C@H]1NC(=O)C[C@@H](/C=C/CCCC(=O)O)NC(=O)[C@@H](Cc2c[nH]c3ccccc23)NC(=O)[C@@H](C)NC1=O

Response given:
[5.66, 5.22, 5.52, 5.43]
